Quick record of MIC values for Aspergillus niger ATCC 16404.
RECORDED_METRIC: MIC (µg/mL)

C=C1C(=O)c2cc(C)ccc2OC1c1ccccc1 (centres unmarked); 25
C=C1C(=O)c2ccccc2OC1c1ccc(Br)cc1 (centres unmarked); 50

[I] C=C1C(=O)c2ccccc2OC1c1ccc([N+](=O)[O-])cc1 (centres unmarked)
[II] C=C1C(=O)c2ccccc2OC1c1ccc(OC)cc1 (centres unmarked)
[III] C=C1C(=O)c2ccc(OC)cc2OC1c1ccc(Cl)cc1 (centres unmarked)
query: # rank by MIC, ascending (min first) Please list the labels in the order you were asked to rank them.
result: III, I, II

###

Quick record of MIC values for T. mentagrophytes CDC.
RECORDED_METRIC: MIC (µg/mL)

Sample answers from the record:
C=C1C(=O)c2ccccc2OC1c1cccc(OC)c1 (stereo not drawn); 25
C=C1C(=O)c2cc(Br)ccc2OC1c1ccc(Br)cc1 (stereo not drawn); 50
C=C1C(=O)c2ccccc2OC1c1cccc([N+](=O)[O-])c1 (stereo not drawn); 12.5

[a] C=C1C(=O)c2ccc(OC)cc2OC1c1ccc(Cl)cc1 (stereo not drawn)
[b] C=C1C(=O)c2ccccc2OC1c1ccc(C)cc1 (stereo not drawn)
query: For the two items a and b , which reports the higher MIC value? Give the chosen item's label as your response.
result: a
(a: 12.5 µg/mL, b: 6.2 µg/mL)

[a] C=C1C(=O)c2ccccc2OC1c1ccc(C(C)(C)C)cc1 (stereo not drawn)
[b] C=C1C(=O)c2ccccc2OC1c1cccc2ccccc12 (stereo not drawn)
[c] C=C1C(=O)c2ccccc2OC1c1ccc(Cl)cc1 (stereo not drawn)
query: List these items ordered by MIC, big to small. Please list the labels in the order you were asked to rank them.
result: a, b, c
(a: 25 µg/mL, b: 12.5 µg/mL, c: 6.2 µg/mL)

[A] C=C1C(=O)c2ccccc2OC1c1ccc(Br)cc1 (stereo not drawn)
[B] C=C1C(=O)c2ccccc2OC1c1ccc2ccccc2c1 (stereo not drawn)
query: For the two items A and B , which reports the higher MIC value? Give the chosen item's label as your response.
result: B
(B: 25 µg/mL, A: 12.5 µg/mL)

[a] C=C1C(=O)c2ccccc2OC1c1ccc([N+](=O)[O-])cc1 (stereo not drawn)
[b] C=C1C(=O)c2ccccc2OC1c1ccc(N(C)C)cc1 (stereo not drawn)
query: Of the pair a and b , name the member with the lesser recorded MIC. Give the chosen item's label as your response.
result: a
(a: 6.2 µg/mL, b: 25 µg/mL)

###

- Tested on: A. fumigatus NRRL 165
RECORDED_METRIC: MIC (mg/L)

[a] C=C1C(=O)c2ccccc2OC1c1cccc([N+](=O)[O-])c1 (stereo not shown)
[b] C=C1C(=O)c2ccccc2OC1c1ccc(Br)cc1 (stereo not shown)
query: For the two items a and b , which reports the higher MIC value? Give the chosen item's label as your response.
result: a

###

- Test system: C. krusei VM 29B
RECORDED_METRIC: MIC (µg/mL)

Sample answers from the record:
C=C1C(=O)c2ccccc2OC1c1cccc(OC)c1 (stereo not shown) [Ex. 7, 3'-methoxy-3-methylene flavanone]; 100
C=C1C(=O)c2ccccc2OC1c1ccc(C(C)(C)C)cc1 (stereo not shown) [Ex. 14, 4'-t-butyl-3-methylene flavanone]; 50
C=C1C(=O)c2ccccc2OC1c1ccccc1 (stereo not shown) [Ex. 1, 3-methylene flavanone]; 50

[P] C=C1C(=O)c2ccccc2OC1c1cccc([N+](=O)[O-])c1 (stereo not shown) [compound 9, 3'-nitro-3-methylene flavanone]
[Q] C=C1C(=O)c2ccccc2OC1c1ccc(Cl)cc1 (stereo not shown) [Ex. 3, 4'-chloro-3-methylene flavanone]
query: For the two items P and Q , which reports the higher MIC value? Give the chosen item's label as your response.
result: P

The origin of these recorded values is patent US4241069A.
